Recorded values, source ChEMBL document CHEMBL5316373.

- assayMethodText: Clearance in mouse at 3 mg/kg, iv
- Format: ADME, organism-based
- assayConditions: in vivo
Listing of entries alongside the reported clearance.

{"smilesRepresentation": "CC(C)(C)NC(=O)C(=O)[C@H](C[C@@H]1CCNC1=O)NC(=O)[C@@H]1[C@H]2CCC[C@H]2CN1C(=O)[C@@H](NC(=O)C(F)(F)F)C1CCCC1", "measurementUnits": "mL/min/kg", "clearance": 5.06}
{"smilesRepresentation": "CC(C)(C)[C@H](NC(=O)C(F)(F)F)C(=O)N1C[C@@H]2CCC[C@@H]2[C@H]1C(=O)N[C@H](C#N)C[C@@H]1CCNC1=O", "measurementUnits": "mL/min/kg", "clearance": 79.3}
{"smilesRepresentation": "CC(C)(C)[C@H](NC(=O)C(F)(F)F)C(=O)N1C[C@H]2[C@@H]([C@H]1C(=O)N[C@H](C#N)C[C@@H]1CCNC1=O)C2(C)C", "measurementUnits": "mL/min/kg", "clearance": 30.2}
{"smilesRepresentation": "N#C[C@H](C[C@@H]1CCNC1=O)NC(=O)[C@@H]1[C@H]2CCC[C@H]2CN1C(=O)[C@@H](NC(=O)C(F)(F)F)C1CCCCC1", "measurementUnits": "mL/min/kg", "clearance": 92.2}

====

- assayMethodText: Oral bioavailability in rat at 10 mg/kg
- Format: ADME, organism-based
- assayConditions: in vivo
propertyName: bioavailability (%)

{"smilesRepresentation": "CC(C)(C)NC(=O)C(=O)[C@H](C[C@@H]1CCNC1=O)NC(=O)[C@@H]1[C@H]2CCC[C@H]2CN1C(=O)[C@@H](NC(=O)C(F)(F)F)C1CCCCC1", "measurementUnits": "%", "recordedNumber": 37.4}
{"smilesRepresentation": "CC(C)(C)[C@H](NC(=O)C(F)(F)F)C(=O)N1C[C@@H]2CCC[C@@H]2[C@H]1C(=O)N[C@H](C#N)C[C@@H]1CCNC1=O", "measurementUnits": "%", "recordedNumber": 52}
{"smilesRepresentation": "CC(C)(C)[C@H](NC(=O)C(F)(F)F)C(=O)N1C[C@H]2[C@@H]([C@H]1C(=O)N[C@H](C#N)C[C@@H]1CCNC1=O)C2(C)C", "measurementUnits": "%", "recordedNumber": 29.9}
{"smilesRepresentation": "N#C[C@H](C[C@@H]1CCNC1=O)NC(=O)[C@@H]1[C@H]2CCC[C@H]2CN1C(=O)[C@@H](NC(=O)C(F)(F)F)C1CCCCC1", "measurementUnits": "%", "recordedNumber": 57.6}

====

- assayMethodText: AUC in mouse at 10 mg/kg, po
- Assay type: ADME, organism-based
- Set-up: route po
- assayConditions: in vivo
Listing of entries alongside the reported AUC.
propertyName: AUC (µM·h)

{"smilesRepresentation": "CC(C)(C)NC(=O)C(=O)[C@H](C[C@@H]1CCNC1=O)NC(=O)[C@@H]1[C@H]2CCC[C@H]2CN1C(=O)[C@@H](NC(=O)C(F)(F)F)C1CCCC1", "recordedNumber": 16.8}
{"smilesRepresentation": "N#C[C@H](C[C@@H]1CCNC1=O)NC(=O)[C@@H]1[C@H]2CCC[C@H]2CN1C(=O)[C@@H](NC(=O)C(F)(F)F)C1CCCCC1", "recordedNumber": 0.478}
{"smilesRepresentation": "CC(C)(C)[C@H](NC(=O)C(F)(F)F)C(=O)N1C[C@H]2[C@@H]([C@H]1C(=O)N[C@H](C#N)C[C@@H]1CCNC1=O)C2(C)C", "recordedNumber": 3.58}
{"smilesRepresentation": "CC(C)(C)NC(=O)C(=O)[C@H](C[C@@H]1CCNC1=O)NC(=O)[C@@H]1[C@H]2CCC[C@H]2CN1C(=O)[C@@H](NC(=O)C(F)(F)F)C1CCCCC1", "recordedNumber": 33}
{"smilesRepresentation": "CC(C)(C)[C@H](NC(=O)C(F)(F)F)C(=O)N1C[C@@H]2CCC[C@@H]2[C@H]1C(=O)N[C@H](C#N)C[C@@H]1CCNC1=O", "recordedNumber": 0.553}
